Test system: A431
ASSAY EXPLANATION: whole-cell filipin (free cholesterol) integrated intensity, Z-score; higher = more cholesterol staining
ASSAY SETUP: compound concentration in added solution (µM; 5 µl added to 20 µl cells): 10; 18 h
Structures can show the parent of a compound that is named as a salt.
I would appreciate it if you labelled entries 1 when whole-cell filipin (z-score) is -0.3 or higher, otherwise -1.

>>> group_label("C[C@H]1[C@H](NC(=O)/C(=N\\OC(C)(C)C(=O)O)c2csc(N)n2)C(=O)N1S(=O)(=O)O [Aztreonam]")
-1
>>> group_label("O=C(OCC(O)CO)c1ccccc1Nc1ccnc2cc(Cl)ccc12 (centres undefined) [Glafenine hydrochloride]")
-1
>>> group_label("O=C(NCCN1CCOCC1)c1ccc(Cl)cc1 [Moclobemide]")
-1
>>> group_label("CC(CN(C)C)C(C)(O)Cc1ccc(Cl)cc1 (centres undefined) [Clobutinol hydrochloride]")
-1
>>> group_label("CC(C)Cn1cnc2c(N)nc3ccccc3c21 [Imiquimod]")
1
>>> group_label("NC12CC3CC(CC(C3)C1)C2 [Adamantamine fumarate]")
-1
>>> group_label("CCN(CC)CCOc1ccc(C(=C(Cl)c2ccccc2)c2ccccc2)cc1 [Clomiphene citrate (Z,E)]")
1
>>> group_label("CS(=O)(=O)Nc1ccc([N+](=O)[O-])cc1Oc1ccccc1 [Nimesulide]")
-1
>>> group_label("O=C(O)CCNC(=O)c1ccc(/N=N/c2ccc(O)c(C(=O)O)c2)cc1 [Balsalazide Sodium]")
1

----------
System: A431
ASSAY EXPLANATION: whole-cell filipin (free cholesterol) integrated intensity, Z-score; higher = more cholesterol staining
ASSAY SETUP: compound concentration in added solution (µM; 5 µl added to 20 µl cells): 10; 18 h
Structures can show the parent of a compound that is named as a salt.
I would appreciate it if you labelled entries 1 when whole-cell filipin (z-score) is -0.2 or higher, otherwise 0.

>>> group_label("COc1ccc(-c2cc(=O)c3c(O)cc(O[C@@H]4O[C@H](CO[C@@H]5O[C@@H](C)[C@H](O)[C@@H](O)[C@H]5O)[C@@H](O)[C@H](O)[C@H]4O)cc3o2)cc1O")
0
>>> group_label("Nc1ccn([C@@H]2CS[C@H](CO)O2)c(=O)n1")
0
>>> group_label("Cn1c(=O)c2c(ncn2C)n(C)c1=O")
1
>>> group_label("CCCc1nc2c(C)cc(-c3nc4ccccc4n3C)cc2n1Cc1ccc(-c2ccccc2C(=O)O)cc1")
1
>>> group_label("CNc1ncnc2c1ncn2[C@@H]1O[C@H](CO)[C@@H](O)[C@H]1O")
0
>>> group_label("Cc1[nH]c(=O)c(C#N)cc1-c1ccncc1")
1
>>> group_label("Cc1nc2n(c(=O)c1CCN1CCC(c3noc4cc(F)ccc34)CC1)CCCC2")
1
>>> group_label("Nc1nc(=S)c2ncn([C@@H]3O[C@H](CO)[C@@H](O)[C@H]3O)c2[nH]1")
0
>>> group_label("CC(C)(C)NCC(O)c1cc(O)cc(O)c1 (configuration not stated) [Terbutaline hemisulfate]")
0
>>> group_label("CN(C)CCCN1c2ccccc2Sc2ccc(Cl)cc21 [Chlorpromazine hydrochloride]")
1
>>> group_label("CC(=O)[C@H]1CC[C@H]2[C@@H]3C[C@H](C)C4=CC(=O)CC[C@]4(C)[C@H]3[C@@H](O)C[C@]12C")
1
>>> group_label("COc1ccc(C(=O)c2ccccc2)c(O)c1")
0
>>> group_label("C[C@@H](c1ncncc1F)[C@](O)(Cn1cncn1)c1ccc(F)cc1F")
0
>>> group_label("CCC(=O)[C@@]1(C)[C@H](C)C[C@H]2[C@@H]3CCC4=CC(=O)C=C[C@]4(C)[C@H]3[C@@H](O)C[C@@]21C [Rimexolone]")
1
>>> group_label("Nc1ccc(O)c(C(=O)O)c1")
1
>>> group_label("OCCN1C[C@H](O)[C@@H](O)[C@H](O)[C@H]1CO")
0
>>> group_label("Cc1ccc(S(=O)(=O)NC(=O)NN2CC3CCCC3C2)cc1 (configuration not stated) [Gliclazide]")
0
